- Test system: SF-268 CNS
- METHOD: NCI tumour cell line growth inhibition, 48 h
ENDPOINT NAME: TGI

{"columns": ["MOLECULE", "SYSTEM UNDER TEST", "ENDPOINT NAME", "REPORTED VALUE"],
 "data": [
  ["O=c1oc2ccccc2n1CCN1CCCCC1", "SF-268 CNS", "TGI", "> 100 µM"],
  ["Cc1nnc2n1-c1ccccc1C(=S)N1CSCC21 (stereo not given)", "SF-268 CNS", "TGI", "> 100 µM"],
  ["COc1ccc2oc3cccc(NCCN(C)C)c3c(=O)c2c1", "SF-268 CNS", "TGI", "28.3 µM"],
  ["CCCCCCCCCCCCCCCCCCCCCC(=O)Nc1ccn(C2OC(CO)C(O)C2O)c(=O)n1 (stereo not given)", "SF-268 CNS", "TGI", "> 100 µM"],
  ["O=[N+]([O-])c1ccc2nc(/C=C(\\O)c3ccc(F)cc3)c(/C=C(\\O)c3ccc(F)cc3)nc2c1", "SF-268 CNS", "TGI", "> 100 µM"]
]}

* * *

- Test system: MDA-MB-435
- METHOD: NCI tumour cell line growth inhibition, 48 h
Decide by TGI: equal to or exceeding 30 µM means fulfilled, less means not fulfilled.

{"columns": ["MOLECULE", "GROUP"],
 "data": [
  ["C=C1C(=O)O[C@H]2[C@H]1CC/C(COC(=O)N1CCC[C@H]1C(=O)Nc1ccc(OC)c(C(N)=O)c1O)=C\\CC[C@@]1(C)O[C@@H]21", "not fulfilled"],
  ["O=[N+]([O-])c1cccnc1NCC1(CO)CC(Cc2ccccc2)C1 (stereo not given)", "fulfilled"],
  ["CNC(=O)c1[nH]cnc1/N=N/N(C)N", "fulfilled"],
  ["Cc1c(NC(=S)Nc2ccc(Cl)cc2)c(=O)n(-c2ccccc2)n1C", "fulfilled"],
  ["CCOC(=O)CCC(NC(=O)c1ccc(N2CCN(c3c(C)nc(N)nc3N)CC2)cc1)C(=O)OCC (stereo not given)", "fulfilled"],
  ["CC1C[C@]2(C)C(=O)N(c3ccccc3)C(=N)[C@@H]2N(C)c2ccccc21 (stereo not given in full)", "fulfilled"],
  ["C#C[C@]1(O)CC[C@H]2[C@@H]3CCc4cc(OC(=O)c5cccc6cc7ccccc7nc56)ccc4[C@H]3CC[C@@]21C", "fulfilled"],
  ["Cc1cc2c3ccccc3n(C)c2c2c1C(=O)C=CC2=O", "fulfilled"],
  ["c1ccc(CSc2nc(N3CCOCC3)c3cn[nH]c3n2)cc1", "fulfilled"],
  ["Clc1nc(Cl)c2ncn(Cc3ccc(COc4cccc(OCc5ccc(Cn6cnc7c(Cl)nc(Cl)nc76)cc5)c4)cc3)c2n1", "fulfilled"],
  ["COCc1cc2c(cc1/C=C/[N+](=O)[O-])OCO2", "fulfilled"],
  ["Cc1cc2c(c(C=NCc3ccccc3)c1)OC1(C=C2)Oc2ccccc2C(=O)N1C (stereo not given)", "fulfilled"],
  ["CC(C)NC(=O)OCCS(=O)c1c(Cl)c(Cl)nn1C (stereo not given)", "fulfilled"],
  ["CC(=O)OCC1OC(n2ccc(=O)[nH]c2=O)C(OC(C)=O)C1OC(C)=O (stereo not given)", "fulfilled"],
  ["COc1ccc2c(c1)c1c(n2CCN2CCCCC2)-c2ccccc2CC1", "fulfilled"],
  ["CCOc1ccc(NCc2cc(OC)c(OC)c(OC)c2)cc1", "fulfilled"],
  ["CSC1=C(c2ccc(Cl)cc2)SC(N2CCCCC2)N1c1ccc([N+](=O)[O-])cc1 (stereo not given)", "fulfilled"],
  ["CC1(C)Oc2ccc3c(=O)cc(-c4ccc(F)cc4)oc3c2C1C(=O)O (stereo not given)", "fulfilled"],
  ["C=C1CC[C@@H]2[C@](C)(COC(C)=O)[C@H](OC(C)=O)CC[C@@]2(C)[C@@H]1CC(Nc1ccc(S(=O)(=O)Nc2nccc(C)n2)cc1)C1=CCOC1=O (stereo not given in full)", "not fulfilled"],
  ["CSc1ccc(/C=C2\\N=C(c3ccccc3)N(c3nc4ccc(Sc5ccccc5)cc4[nH]3)C2=O)cc1", "not fulfilled"],
  ["O=C(CC(C(=O)c1ccoc1)c1ccco1)c1ccco1 (stereo not given)", "fulfilled"],
  ["COc1cc2c(cc1OC)CC(N=[N+]=[N-])c1cc(OC)c(OC)cc1/C=C\\2 (stereo not given)", "fulfilled"],
  ["COC(=O)CNC(=O)[C@@H](OC)[C@@H]1Cc2cc3cc(OC4CC(OC5CC(O)C(O)C(C)O5)C(O)C(C)O4)c(C)c(O)c3c(O)c2C(=O)[C@H]1OC1CC(OC2CC(OC3CC(C)(O)C(O)C(C)O3)C(O)C(C)O2)C(O)C(C)O1 (stereo not given in full)", "not fulfilled"]
]}
